This section presents compounds with their documented pIC50 values.
- TARGET_OR_SYSTEM: SCD-1 (Homo sapiens, UniProt O00767)
- Construct: 50 μg of protein from a HepG2 cell P2 pellet; endogenous in cells; host or cells: HepG2 cells (P2 pellet)
- Sequence (O00767 1-359): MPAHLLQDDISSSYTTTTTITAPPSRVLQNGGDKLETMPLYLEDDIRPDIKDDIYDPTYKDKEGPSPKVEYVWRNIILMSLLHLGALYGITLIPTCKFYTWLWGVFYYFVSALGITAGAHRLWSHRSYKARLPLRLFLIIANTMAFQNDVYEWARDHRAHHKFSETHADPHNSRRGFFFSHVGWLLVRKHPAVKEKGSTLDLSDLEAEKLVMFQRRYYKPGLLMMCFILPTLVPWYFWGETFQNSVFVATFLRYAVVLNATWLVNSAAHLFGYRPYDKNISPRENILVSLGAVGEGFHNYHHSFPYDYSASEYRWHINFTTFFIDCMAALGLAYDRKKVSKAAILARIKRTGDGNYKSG
- EXPERIMENTAL_DETAILS: Stearoyl-CoA desaturase assay (HepG2 cell P2 pellet)
- Type: biochemical
- TEST_CONTEXT: Table 3, compounds of formula (Ic); protein from HepG2 cell P2 pellet, 20 μM stearoyl-CoA, 15 min at 25° C.; read-out: Ave IC50
pIC50: −log10 of the molar value.

O=C(NCCC1CC1)c1ccc(N2CCC3(CC2)CCN(Cc2cccc(C(F)(F)F)c2)c2ccccc2O3)cc1 : 5.00 to 6.30
O=C(O)c1ccc(N2CCC3(CC2)CCN(Cc2cccc(C(F)(F)F)c2)c2ccccc2O3)nn1 : 5.00 to 6.30
NC(=O)c1ccc(N2CCC3(CC2)CCN(Cc2ccc(Oc4ccccc4)cc2)c2ccccc2O3)nn1 : 7.31 to 9.30

Please look at the following compound next.
Item under review: `CCCNC(=O)c1ccc(N2CCC3(CC2)CCN(Cc2cccc(C(F)(F)F)c2)c2ccccc2O3)nn1` . Reported pIC50?
6.30 to 7.30

###

- TARGET_OR_SYSTEM: SCD-1 (Homo sapiens)
- Construct: 50 μg of protein from a HepG2 cell P2 pellet; endogenous in cells; host or cells: HepG2 cells (P2 pellet)
- EXPERIMENTAL_DETAILS: Stearoyl-CoA desaturase assay (HepG2 cell P2 pellet)
- Assay type: biochemical
- TEST_CONTEXT: Table 2, compounds of formula (Ib); protein from HepG2 cell P2 pellet, 20 μM stearoyl-CoA, 15 min at 25° C.; read-out: Ave IC50
QUANTITY_NAME: IC50

In the examples that follow, each entry is paired with its recorded IC50.
CC(C)(C)c1ccc(CN2CCC3(CCN(c4ncc(C(=O)NCc5ccccc5)s4)CC3)Oc3ccccc32)cc1 : 500 to 10000 nM
CN(C)CCCNC(=O)c1cnc(N2CCC3(CC2)CCN(Cc2ccc(C(C)(C)C)cc2)c2cccc(F)c2O3)s1 : 500 to 10000 nM
CC(C)(C)c1ccc(CN2CCC3(CCN(c4ncc(C(=O)N5CCCC5)s4)CC3)Oc3ccccc32)cc1 : 500 to 10000 nM
O=C(c1cnc(N2CCC3(CC2)CCN(Cc2cccc(C(F)(F)F)c2)c2ccccc2O3)s1)N1CCCC1 : 500 to 10000 nM
CC(C)(C)OC(=O)CCNC(=O)c1cnc(N2CCC3(CC2)CCN(Cc2ccc(C(C)(C)C)cc2)c2cccc(F)c2O3)s1 : 0.5 to 49 nM
CC(C)(C)c1ccc(CN2CCC3(CCN(c4ncc(C(=O)NCC(O)c5ccccn5)s4)CC3)Oc3c(F)cccc32)cc1 (centres unmarked) : 50 to 499 nM

Form entry - test system: SCD-1 (Homo sapiens); read-out: IC50; compound: `CC(C)(C)c1ccc(CN2CCC3(CCN(c4ncc(-c5ccccc5)s4)CC3)Oc3ccccc32)cc1`
500 to 10000 nM

Form entry - test system: SCD-1 (Homo sapiens); read-out: IC50; compound: `CC(C)(C)c1ccc(CN2CCC3(CCN(c4ncc(C(=O)NC[C@H]5CC[C@H](O)C5)s4)CC3)Oc3c(F)cccc32)cc1`
> 10000 nM

Form entry - test system: SCD-1 (Homo sapiens); read-out: IC50; compound: `CC(C)(C)c1ccc(CN2CCC3(CCN(c4ncc(C(=O)O)s4)CC3)Oc3ccccc32)cc1`
50 to 499 nM

###

- TARGET_OR_SYSTEM: SCD-1 (Homo sapiens)
- Construct: 50 μg of protein from a HepG2 cell P2 pellet; endogenous in cells; host or cells: HepG2 cells (P2 pellet)
- EXPERIMENTAL_DETAILS: Stearoyl-CoA desaturase assay (HepG2 cell P2 pellet)
- Format: biochemical
- TEST_CONTEXT: Table 2, compounds of formula (Ib); protein from HepG2 cell P2 pellet, 20 μM stearoyl-CoA, 15 min at 25° C.; read-out: Ave IC50
QUANTITY_NAME: IC50

CC(C)(C)c1ccc(CN2CCC3(CCN(c4ncc(-c5cncnc5)s4)CC3)Oc3ccccc32)cc1 : 50 to 499 nM
COC(=O)CCNC(=O)c1cnc(N2CCC3(CC2)CCN(Cc2ccc(C(C)(C)C)cc2)c2ccccc2O3)s1 : 0.5 to 49 nM
NC(=O)c1cnc(N2CCC3(CC2)CCN(Cc2cccc(C(F)(F)F)c2)c2ccccc2O3)s1 : 0.5 to 49 nM
Cc1cc(CNC(=O)c2cnc(N3CCC4(CC3)CCN(Cc3ccc(C(C)(C)C)cc3)c3cccc(F)c3O4)s2)no1 : 500 to 10000 nM
CCCNC(=O)c1cnc(N2CCC3(CC2)CCN(Cc2ccc(C(C)(C)C)cc2)c2cccc(F)c2O3)s1 : 50 to 499 nM
Cn1cncc1CNC(=O)c1cnc(N2CCC3(CC2)CCN(Cc2ccc(C(C)(C)C)cc2)c2cccc(F)c2O3)s1 : > 10000 nM

Item under review: `CN(C)CCNC(=O)c1cnc(N2CCC3(CC2)CCN(Cc2ccc(C(C)(C)C)cc2)c2cccc(F)c2O3)s1` . Reported IC50?
> 10000 nM

###

This section presents compounds with their documented IC50 values.
- TARGET_OR_SYSTEM: SCD-1 (Homo sapiens)
- Construct: 50 μg of protein from a HepG2 cell P2 pellet; endogenous in cells; host or cells: HepG2 cells (P2 pellet)
- EXPERIMENTAL_DETAILS: Stearoyl-CoA desaturase assay (HepG2 cell P2 pellet)
- Format: biochemical
- TEST_CONTEXT: Table 2, compounds of formula (Ib); protein from HepG2 cell P2 pellet, 20 μM stearoyl-CoA, 15 min at 25° C.; read-out: Ave IC50

In the examples that follow, each entry is paired with its recorded IC50.
CC(C)(C)c1ccc(CN2CCC3(CCN(c4ncc(C(=O)NCc5ccco5)s4)CC3)Oc3c(F)cccc32)cc1 : 500 to 10000 nM
CC(C)(C)c1ccc(CN2CCC3(CCN(c4ncc(C(=O)NCCn5ccnc5)s4)CC3)Oc3c(F)cccc32)cc1 : > 10000 nM
CC(C)CCNC(=O)c1cnc(N2CCC3(CC2)CCN(Cc2ccc(C(C)(C)C)cc2)c2cccc(F)c2O3)s1 : 500 to 10000 nM
CC(C)(C)c1ccc(CN2CCC3(CCN(c4ncc(C(=O)NCc5ccccn5)s4)CC3)Oc3c(F)cccc32)cc1 [Compound 85] : 50 to 499 nM
CC(C)(C)c1ccc(CN2CCC3(CCN(c4ncc(C(=O)NCCc5cccs5)s4)CC3)Oc3c(F)cccc32)cc1 : 500 to 10000 nM
C[S+]([O-])CCNC(=O)c1cnc(N2CCC3(CC2)CCN(Cc2ccc(C(C)(C)C)cc2)c2cccc(F)c2O3)s1 (stereo not shown) : 50 to 499 nM

Please look at the following compound next.
Item under review: `CC(C)(C)c1ccc(CN2CCC3(CCN(c4ncc(C(=O)NCCC(N)=O)s4)CC3)Oc3c(F)cccc32)cc1` . Reported IC50?
50 to 499 nM

###

- TARGET_OR_SYSTEM: SCD-1 (Homo sapiens, UniProt O00767)
- Construct: 50 μg of protein from a HepG2 cell P2 pellet; endogenous in cells; host or cells: HepG2 cells (P2 pellet)
- EXPERIMENTAL_DETAILS: Stearoyl-CoA desaturase assay (HepG2 cell P2 pellet)
- Assay type: biochemical
- TEST_CONTEXT: Table 2, compounds of formula (Ib); protein from HepG2 cell P2 pellet, 20 μM stearoyl-CoA, 15 min at 25° C.; read-out: Ave IC50
- Experimental: Stearoyl-CoA desaturase assays were performed in according to Talamo and Bloch. […] Assays were run in triplicate in 100-μl volumes of 100 mM TrisHCl, pH 7.3, containing 20 μM stearoyl-CoA, 2 mM β-NADH, and 50 μg of protein from a HepG2 cell P2 pellet. Since SCD-1 is the only isoform of SCD expressed in these cells, the assay is specific for SCD-1 with these cells as the source of enzyme. […]
QUANTITY_NAME: IC50

CC(C)(C)c1ccc(CN2CCC3(CCN(c4ncc(C(=O)NC[C@H](O)c5ccccc5)s4)CC3)Oc3c(F)cccc32)cc1 : 500 to 10000 nM
CC(C)(C)c1ccc(CN2CCC3(CCN(c4ncc(C(=O)NCCCn5ccnn5)s4)CC3)Oc3c(F)cccc32)cc1 : 500 to 10000 nM
O=C(NCc1ccccc1)c1cnc(N2CCC3(CC2)CCN(Cc2cccc(C(F)(F)F)c2)c2ccccc2O3)s1 : 500 to 10000 nM
CC(C)(C)c1ccc(CN2CCC3(CCN(c4ncc(C(=O)Nc5ccccc5)s4)CC3)Oc3ccccc32)cc1 : > 10000 nM
CC(C)(C)c1ccc(CN2CCC3(CCN(c4ncc(C(=O)NCCN5CCNC5=O)s4)CC3)Oc3c(F)cccc32)cc1 : 500 to 10000 nM
O=C(NCCCO)c1cnc(N2CCC3(CC2)CCN(Cc2cccc(C(F)(F)F)c2)c2cccc(F)c2O3)s1 : 0.5 to 49 nM
O=C(NC[C@H](O)CO)c1cnc(N2CCC3(CC2)CCN(Cc2cccc(C(F)(F)F)c2)c2cccc(F)c2O3)s1 : 0.5 to 49 nM
CC(C)(C)c1ccc(CN2CCC3(CCN(c4ncc(C(=O)O)s4)CC3)Oc3c(F)cccc32)cc1 : 0.5 to 49 nM
CC(C)(C)c1ccc(CN2CCC3(CCN(c4ncc(C(=O)NCC[C@H]5CC[C@H](O)C5)s4)CC3)Oc3c(F)cccc32)cc1 : 500 to 10000 nM
CC(C)(C)c1ccc(CN2CCC3(CCN(c4ncc(C(=O)NC5CC5)s4)CC3)Oc3ccccc32)cc1 : 50 to 499 nM

Form entry - test system: SCD-1 (Homo sapiens, UniProt O00767); read-out: IC50; compound: `COC(=O)c1cnc(N2CCC3(CC2)CCN(Cc2cccc(C(F)(F)F)c2)c2ccccc2O3)s1`
0.5 to 49 nM

Form entry - test system: SCD-1 (Homo sapiens, UniProt O00767); read-out: IC50; compound: `CC(C)(C)c1ccc(CN2CCC3(CCN(c4ncc(C(=O)NCc5ccccc5F)s4)CC3)Oc3c(F)cccc32)cc1`
50 to 499 nM

Form entry - test system: SCD-1 (Homo sapiens, UniProt O00767); read-out: IC50; compound: CC(C)(C)c1ccc(CN2CCC3(CCN(c4ncc(C(=O)NCC5CCCO5)s4)CC3)Oc3c(F)cccc32)cc1 (centres unmarked) [Compound 79]
50 to 499 nM

Form entry - test system: SCD-1 (Homo sapiens, UniProt O00767); read-out: IC50; compound: `O=C(NCCC1CC1)c1cnc(N2CCC3(CC2)CCN(Cc2cccc(C(F)(F)F)c2)c2ccccc2O3)s1`
500 to 10000 nM
